Entries annotated with measured Population Mitochondria Different-Phenotype (%)
# Test system: Fibroblast
# measurementNotes: Multiplex assay against human fibroblast
# Format: toxicity, cell-based
# measurementContext: 48 h, 10 µM, compound concentration 10 uM
observable: Population Mitochondria Different-Phenotype (%)

smilesRepresentation	val
Nc1nc(-c2ccco2)c2cnn(Cc3ccccc3F)c2n1	10%
CC1(COc2ccc3c(c2)ncn3-c2ccc3cccc(N4CCC(N)CC4)c3n2)COC1	6%
COc1ccc2c(c1OCc1ccccc1)C[C@@H](C(=O)O)N(C(=O)C(c1ccccc1)c1ccccc1)C2	5%
CCCCC[C@H](O)/C=C/[C@H]1[C@H](O)CC(=O)[C@@H]1CCCCCCC(=O)O	7%
